Target: human NR1/NR2B (Homo sapiens, UniProt Q05586+Q13224)
Sequence (Q13224 27-1484, other chains not shown): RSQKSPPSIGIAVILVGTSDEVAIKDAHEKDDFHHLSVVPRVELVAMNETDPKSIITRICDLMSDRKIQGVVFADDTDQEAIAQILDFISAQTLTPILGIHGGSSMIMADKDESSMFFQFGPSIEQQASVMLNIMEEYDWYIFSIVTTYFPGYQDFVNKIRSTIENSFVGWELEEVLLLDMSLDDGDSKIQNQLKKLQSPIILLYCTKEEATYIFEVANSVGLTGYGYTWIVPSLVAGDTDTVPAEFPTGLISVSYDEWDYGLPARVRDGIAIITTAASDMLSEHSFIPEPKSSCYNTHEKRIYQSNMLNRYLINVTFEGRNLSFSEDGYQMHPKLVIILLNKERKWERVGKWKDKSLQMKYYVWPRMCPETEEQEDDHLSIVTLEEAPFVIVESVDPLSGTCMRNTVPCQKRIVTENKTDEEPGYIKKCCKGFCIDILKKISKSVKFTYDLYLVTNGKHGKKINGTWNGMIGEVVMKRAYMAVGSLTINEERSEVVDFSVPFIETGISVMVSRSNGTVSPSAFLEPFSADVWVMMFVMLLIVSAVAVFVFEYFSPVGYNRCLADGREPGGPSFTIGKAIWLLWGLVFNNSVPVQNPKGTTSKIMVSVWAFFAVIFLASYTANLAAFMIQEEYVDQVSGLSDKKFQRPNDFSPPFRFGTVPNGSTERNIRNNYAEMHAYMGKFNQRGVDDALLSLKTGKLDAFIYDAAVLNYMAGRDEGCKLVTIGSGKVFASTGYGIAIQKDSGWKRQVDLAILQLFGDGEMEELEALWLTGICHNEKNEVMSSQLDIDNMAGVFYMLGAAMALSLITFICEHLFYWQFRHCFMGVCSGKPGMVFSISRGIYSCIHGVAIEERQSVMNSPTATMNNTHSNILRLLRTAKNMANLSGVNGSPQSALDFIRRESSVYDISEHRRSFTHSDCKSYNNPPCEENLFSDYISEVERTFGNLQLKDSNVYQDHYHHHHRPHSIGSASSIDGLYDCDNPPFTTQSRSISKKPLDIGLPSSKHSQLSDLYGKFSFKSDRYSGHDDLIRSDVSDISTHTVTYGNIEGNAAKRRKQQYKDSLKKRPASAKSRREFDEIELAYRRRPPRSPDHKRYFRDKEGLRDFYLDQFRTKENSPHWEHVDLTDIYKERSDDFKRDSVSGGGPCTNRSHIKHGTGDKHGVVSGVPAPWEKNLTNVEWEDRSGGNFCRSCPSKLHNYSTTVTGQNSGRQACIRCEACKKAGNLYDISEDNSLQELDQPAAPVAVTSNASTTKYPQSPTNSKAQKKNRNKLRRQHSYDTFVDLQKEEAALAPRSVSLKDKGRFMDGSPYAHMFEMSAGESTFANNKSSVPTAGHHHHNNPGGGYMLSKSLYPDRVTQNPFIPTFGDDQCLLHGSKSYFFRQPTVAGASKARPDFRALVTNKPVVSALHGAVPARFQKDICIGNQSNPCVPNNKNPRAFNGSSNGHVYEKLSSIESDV
Test: Two electrode voltage clamp concentration-effect curve, human NR1/NR2B
EXPERIMENTAL READOUT: pIC50
Note: pIC50 values are expressed as the negative base-10 logarithm of concentration in M.

Could you tell me which pIC50 is on file for CS(=O)(=O)Nc1ccc(CCC(=O)NNC(=O)Cc2ccc(Cl)c(Cl)c2)cc1 ?
5.24

====

Test system: MDR1
Experiment: MDR1-MDCK permeability
Assay type: in vitro ADME
Settings: dog, MDCK-MDR1, pH 7.4
EXPERIMENTAL READOUT: Papp A→B at 2 h, 5 μM

For the molecule CS(=O)(=O)Nc1ccc(OCC(=O)N2CCN(c3ccc(Cl)c(Cl)c3)CC2)cc1 [Compound 57] , what Papp A→B at 2 h, 5 μM is on record?
4.8 ×10⁻⁶ cm/s

====

Test system: α1-adrenergic receptor
Assay: [3H]prazosin displacement from brain membranes
Type: binding, Wistar rat
Settings: displacement of ligand at 3 μM
EXPERIMENTAL READOUT: α1-adrenergic binding

MOLECULE: CS(=O)(=O)Nc1ccc(CCCN2CCN(c3ccc(Cl)c(Cl)c3)C2=O)cc1 [Compound 70]
RESULT VALUE: negligible

MOLECULE: CS(=O)(=O)Nc1ccc(OCCN2CCN(c3ccc(Cl)c(Cl)c3)C2=O)cc1 [Compound 71]
RESULT VALUE: negligible

MOLECULE: CS(=O)(=O)Nc1ccc(OCC(=O)NCCCc2ccc(Cl)c(Cl)c2)cc1 [Compound 54]
RESULT VALUE: negligible

====

System: α1-adrenergic receptor
Experiment: [3H]prazosin displacement from brain membranes
Assay type: binding, Wistar rat
Conditions: 3 μM test compound; 0.25 nM [3H]prazosin; duplicate
EXPERIMENTAL READOUT: α1-Adrenergic (% displacement at 3 μM)

What value of α1-Adrenergic (% displacement at 3 μM) has been recorded for this entry: CS(=O)(=O)Nc1ccc(OCC(=O)NCCCc2ccc(Cl)c(Cl)c2)cc1
<1%

Consider the molecule CS(=O)(=O)Nc1ccc(CCCN2CCN(c3ccc(Cl)c(Cl)c3)C2=O)cc1 and give its measured α1-Adrenergic (% displacement at 3 μM).
<1%

Request the reported α1-Adrenergic (% displacement at 3 μM) associated with CS(=O)(=O)Nc1ccc(OCC(=O)NCCNc2ccc(Cl)c(Cl)c2)cc1
<1%

Reported α1-Adrenergic (% displacement at 3 μM), molecule CS(=O)(=O)Nc1ccc(CCC(=O)NNC(=S)Nc2ccc(Cl)c(Cl)c2)cc1 : ____
<1%
